Task for the reader: assign each of the following variants its reported self-cleavage kobs at 40 uM GlcN6P.
B1: glmS ribozyme (parent)
chain: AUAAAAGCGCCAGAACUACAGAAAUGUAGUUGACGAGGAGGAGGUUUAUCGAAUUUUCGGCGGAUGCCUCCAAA

Variants of: B1
Assay: self-cleavage kobs at 40 uM GlcN6P; higher = faster cleavage; RNA array
Conditions: with glucosamine-6-phosphate
Fewer inactive variants are shown than the library holds.

Some solved entries appear below for comparison.
| biopolymer sequence | reported endpoint | readout value |
| --- | --- | --- |
| AUAAAAGCGCCAGAACUACAGAAAUGUAGUUGACGAGGGCGAGGUUUAUCGAAUUUUCGGCGGAUGUCUCCAAA | self-cleavage kobs at 40 uM GlcN6P | < 1e-05 s⁻¹ |
| AUAAAAGCGCCAGAACUACAGAAAUGUAGUUGACGGGGUGGAGGUUUAUCGAAUUUUCGGCGGAUGCUUCCAAA | self-cleavage kobs at 40 uM GlcN6P | < 1e-05 s⁻¹ |
| AUAAAAGCGCCGGAAAUACAGAAAUGUAGUUGACGGGGAGGAGGUUUAUCGAAUUUUCGGCGGAUGCCCCCAAA | self-cleavage kobs at 40 uM GlcN6P | < 1e-05 s⁻¹ |
| AUAAAAGCGCCAGAACUACAGAAAUGUAGUUGACAAGGAGGAGGUUUAUCGAAGUUUCGGCGGAUGCGUCCAAA | self-cleavage kobs at 40 uM GlcN6P | 0.000144 s⁻¹ |
| AUAAAAGCGCCAGAACUACAGAAAUGUAGUUGACGAGGAGGAGGUUUAUCGAAUAUUCGGCGGAUGCGUCCAAA | self-cleavage kobs at 40 uM GlcN6P | 3.36e-05 s⁻¹ |
| AUAAAAGCGCCAGAACUACAGAAAUGUAGUUGACGAGGAGGAUGUUUAUCGAAUUUUCGGUGGAUGCUUCCAAA | self-cleavage kobs at 40 uM GlcN6P | < 1e-05 s⁻¹ |
| AUAAAAGCGCCAGAACUACAGAAAUGUAGUUGCCGAGGAGGACGUUUAUCGAAUUUUCGGCGGAUGCCUCCAAA | self-cleavage kobs at 40 uM GlcN6P | < 1e-05 s⁻¹ |
| AUAAAAGCGCCAGAACUACAGAAAUGUAGUUGAAGAGGAGGAGGUUUAUCGAAUUUUCGGCGGCUGCCUCCAAA | self-cleavage kobs at 40 uM GlcN6P | < 1e-05 s⁻¹ |
| AUAAAAGCGCCAGAACUACAGAAAUGUAUUUGACGAGGCGGAGGUUUAUCGAAUUUUCGGCGGAUGCCUCCAAA | self-cleavage kobs at 40 uM GlcN6P | 2.91e-05 s⁻¹ |
| AUAAAAGCGCCAGAACUACAGAAAUGUAGUUGACGAGGAGCAGGUUUAUCGAAUUUUCGGCGGAUGCUUCCAAA | self-cleavage kobs at 40 uM GlcN6P | < 1e-05 s⁻¹ |

Hi there! I need self-cleavage kobs at 40 uM GlcN6P for each item below, if you can.
1. AUAAAUGCGCCAGAACUACAGAAAUGUAGUUGACGAGGAGGAGGUUUACCGAAUUUUCGGCGGAUGCCUCCAAA
2. AUAAAAGCGCCAGAACUACAGAAAUGUAGUUGACGAGGAGGAGGUUUAUCUAAUUCUCGGCGGAUGCCUCCAAA
3. AUAAAAGCGCCCGAACUACAGAAAUGUAGUUGACGAGGAGGAGGUCUAUCGAAUUUUCGGCGGAUGCCUCCAAA
4. AUAAAAGCGCCAGAACUACAGAAAUGUAGUUGACGAGGAGGAGGUUUGCCGAAUUUUCGGCGGAUGCCUCCAAA

Result ::
["< 1e-05 s⁻¹", "< 1e-05 s⁻¹", "7.98e-05 s⁻¹", "< 1e-05 s⁻¹"]

The value of self-cleavage kobs at 40 uM GlcN6P measured for the variant AUAAAAGUGCCAGGACUACAGAAAUGUAGUUGACGAAGUUGAGGUUAAUCGAAUUUUGGGCGGAGGCCUUCAAA turned out to be < 1e-05 s⁻¹

Values were extracted from the supplement of paper PMC7125110.
